MEASURED TARGET: human RIP1 kinase domain (2-375) (Homo sapiens (Human), UniProt Q13546)
Sequence (Q13546 2-375): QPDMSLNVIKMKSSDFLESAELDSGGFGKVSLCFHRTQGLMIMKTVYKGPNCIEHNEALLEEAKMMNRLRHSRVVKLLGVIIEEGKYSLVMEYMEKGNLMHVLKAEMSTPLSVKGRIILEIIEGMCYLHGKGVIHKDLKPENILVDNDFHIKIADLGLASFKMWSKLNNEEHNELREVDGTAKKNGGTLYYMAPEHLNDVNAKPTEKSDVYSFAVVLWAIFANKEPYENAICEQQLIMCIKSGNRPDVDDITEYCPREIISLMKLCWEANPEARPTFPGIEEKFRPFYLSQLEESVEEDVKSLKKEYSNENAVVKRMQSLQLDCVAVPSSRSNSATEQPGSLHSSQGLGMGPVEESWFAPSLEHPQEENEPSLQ
PROTOCOL DESCRIPTION: biochemical
Type: biochemical
EXPERIMENTAL SETUP: Table 5; apparent Ki (Morrison tight-binding fit); 50 nM RIP1 kinase domain, 50 uM ATP, 2 hours incubation; read-out: Ki
OBSERVATION TYPE: pKi
Quick note: pKi means taking -log10 of the concentration in moles per liter.

Observe how each entry below is paired with its result.
INSERT INTO results (compound, test_value) VALUES
  ('COCCNCc1cc2n(n1)CCC(NC(=O)c1ncn(Cc3ccccc3)n1)C(=O)N2C (single isomer, unassigned) [Example 780]', 6.22),
  ('CN1C(=O)[C@@H](NC(=O)c2ncn(Cc3ccccc3)n2)CCn2nc(Cn3ccnc3)cc21 [Example 707]', 6.28),
  ('CN1C(=O)[C@@H](NC(=O)c2ncn(Cc3ccccc3)n2)CCn2nc(C3CN(C(=O)OC(C)(C)C)C3)cc21 [Example 759]', 7.62),
  ('CN1C(=O)[C@@H](NC(=O)c2nc3n(n2)C(c2ccccc2)CCC3)COc2ccccc21 (single isomer, unassigned) [Example 791]', 7.89),
  ('Cc1nccn1Cc1cc2n(n1)CCC(NC(=O)c1ncn(Cc3ccccc3)n1)C(=O)N2C (racemic) [Example 706]', 6.38),
  ('Cc1ncc(-c2cc3n(n2)CCC(NC(=O)c2ncn(Cc4ccccc4)n2)C(=O)N3C)n1C (racemic) [Example 775]', 6.74),
  ('CC[C@]1(C)OCc2cnc(C(=O)N[C@H]3COc4ccccc4N(C)C3=O)cc21 (single isomer, unassigned) [Example 764]', 6.57),
  ('CN1C(=O)[C@@H](NC(=O)c2ncn(Cc3ccccc3)n2)CCn2nc(CCO)cc21 [Example 766]', 7.08);

API: the following record is the query input.
Ask: # input compound: CN1C(=O)[C@@H](NC(=O)c2ncc3c(n2)[C@](C)(C(F)(F)F)OC3)COc2ccccc21 [Example 745] ; wanted: its pKi
Reply: 7.92

---

MEASURED TARGET: human RIP1 kinase domain (2-375) (Homo sapiens (Human), UniProt Q13546)
PROTOCOL DESCRIPTION: biochemical
Type: biochemical
EXPERIMENTAL SETUP: tight-binding apparent inhibition constant; human RIP1 kinase domain (2-375) 50 nM, 50 uM ATP, 2 hours; read-out: Ki
Criterion: Ki strictly less than 10 nM. Met: y. Not met: n.

Solved cases (3 shown):
INSERT INTO results (compound, label_value) VALUES
  ('Cc1cc2n(n1)CC[C@H](NC(=O)c1nc3n(n1)CC[C@H]3c1ccccc1)C(=O)N2C (racemic)', 'n'),
  ('CN1C(=O)[C@@H](NC(=O)c2nnc(Cc3ccccc3)[nH]2)CCn2nc([C@H]3CC3(F)F)cc21 (racemic)', 'n'),
  ('CC(C)c1cccc2nc(C(=O)N[C@H]3CCc4cc(F)cc(F)c4NC3=O)nn12', 'y');

Ask: Ki under 10 nM? Item: CN1C(=O)[C@@H](NC(=O)c2ncc3c(n2)C2(CCCOC2)OC3)COc2ccccc21 (stereo partly drawn)
Reply: n

Ask: Could you do the same for CN1C(=O)[C@@H](NC(=O)c2ncc3c(n2)C2(CCC2)OC3)COc2ccccc21 , please?
Reply: y

Ask: Another compound to look at: Cc1cn2c(n1)N(C)C(=O)C(NC(=O)c1ncn(Cc3ccccc3)n1)CC2 (stereo not drawn)
Reply: n

Ask: What would you report for CN1C(=O)[C@@H](NC(=O)c2ncn(C[C@H]3C[C@@H](C)C3)n2)CCn2nccc21 ?
Reply: n

Ask: Likewise for COC1CN(Cc2cc3n(n2)CCC(NC(=O)c2ncn(Cc4ccccc4)n2)C(=O)N3C)C1 (single isomer, unassigned) ?
Reply: n

Ask: Another compound: CN1C(=O)[C@@H](NC(=O)c2nc3cccc(C4CCOCC4)n3n2)COc2ccccc21
Reply: n

Ask: Follow-up item: CN1C(=O)[C@@H](NC(=O)c2ncn(Cc3ncccc3Cl)n2)CCn2nccc21 (racemic)
Reply: n

Ask: Another compound to look at: Cc1cc2n(n1)CC[C@H](NC(=O)c1ncn(Cc3cccc(F)c3)n1)C(=O)N2C
Reply: n

Ask: Try this compound too: CCC[C@@]1(C)OCc2cnc(C(=O)N[C@H]3COc4ccccc4N(C)C3=O)nc21 (racemic)
Reply: n

Ask: Item: O=C(N[C@H]1COc2cc(F)cc(F)c2NC1=O)c1nc2n(n1)CCC2c1ccccc1 (stereo in doubt) [Example 625]
Reply: n

Ask: Similarly, Cc1cc2n(n1)CC[C@H](NC(=O)c1ncn(Cc3ccccc3F)n1)C(=O)N2C ?
Reply: y

Ask: How about CN1C(=O)[C@@H](NC(=O)c2nc3n(n2)[C@H](C(F)(F)F)CCC3)COc2ccccc21 (racemic) ?
Reply: n

Ask: How about this compound: CN1C(=O)[C@@H](NC(=O)c2nnn(Cc3ccccc3)n2)CCn2nc(C3CC3)cc21
Reply: y

Ask: // repeat for CCC[C@H]1CCCc2nc(C(=O)N[C@H]3COc4cc(F)cc(F)c4NC3=O)nn21 (single isomer, unassigned) and report
Reply: y

---

MEASURED TARGET: human RIP1 kinase domain (2-375) (Homo sapiens (Human), UniProt Q13546)
PROTOCOL DESCRIPTION: biochemical
Format: biochemical
EXPERIMENTAL SETUP: human RIP1 kinase domain (2-375), 50 uM ATP, 2 hours incubation, Transcreener ADP assay; read-out: RIP1 Ki
Entries annotated with measured pKi
The value called pKi is obtained by taking minus log10 of the concentration in mol/L.

Ask: Item under review: CC(C)C1CCc2cnc(C(=O)N[C@H]3COc4ccccc4N(C)C3=O)n2C1 (some centres unmarked) . Reported pKi?
Reply: 7.41

Ask: Moving on to CC1CCn2nnc(C(=O)N[C@H]3COc4ccccc4N(C)C3=O)c2C1 (some centres unmarked)
Reply: 6.68

Ask: # repeat for CN1C(=O)C(NC(=O)c2ncn(Cc3ccccc3)n2)CCn2nc3c(c21)CCCC3 (centres unmarked)
Reply: 6.96

Ask: Also CN1C(=O)C(NC(=O)c2ncn(Cc3ccccc3)n2)CCCn2nccc21 (centres unmarked) ?
Reply: 7.03

---

Attribute: log10 Ki
MEASURED TARGET: human RIP1 kinase domain (2-375) (Homo sapiens (Human), UniProt Q13546)
PROTOCOL DESCRIPTION: biochemical
Assay type: biochemical
EXPERIMENTAL SETUP: human RIP1 kinase domain (2-375), Transcreener ADP assay, 50 uM ATP, 2 hours incubation; read-out: RIP1 Ki
Kindly note that the scale is log10 and the underlying Ki is in µM.

Ask: # query: log10 Ki of entry CN1C(=O)[C@@H](NC(=O)c2ncn(Cc3cc(F)ccc3F)n2)CCn2nc(C3CC3)cc21 [Example 304]
Reply: -1.99

Ask: How about CN1C(=O)[C@@H](NC(=O)c2ncn(Cc3cc(F)cc(F)c3)n2)CCn2nc(C3CC3)cc21 [Example 303] ?
Reply: -1.73

Ask: What do you get for CC[C@]1(C)OCc2cc(C(=O)NC3CCn4nc(-c5ccccc5)cc4N(C)C3=O)ncc21 (some centres unmarked) [Example 265] ?
Reply: 0.69

Ask: And the next one, CN1C(=O)[C@@H](NC(=O)c2cc3c(cn2)COC32CCOC2)COc2ccccc21 (some centres unmarked) [Example 232] ?
Reply: -1.05

---

Measured log10(Ki) values are reported for all entries that follow.
MEASURED TARGET: human RIP1 kinase domain (2-375) (Homo sapiens (Human))
PROTOCOL DESCRIPTION: biochemical
Format: biochemical
EXPERIMENTAL SETUP: Table 1; apparent Ki (Morrison tight-binding fit); 50 nM RIP1 kinase domain, 50 uM ATP, 2 hours incubation; read-out: RIP1 Ki
Plainly stated, the numbers are log10 of Ki given in nM.

INSERT INTO assay_data (compound, observation_type, test_value) VALUES
  ('CN1C(=O)[C@@H](NC(=O)c2n[nH]c3c2CC2CC2(C)C3)COc2ccccc21 (stereo partly drawn) [Example 1]', 'log10(Ki)', 3.67);

Ask: Request the reported log10(Ki) associated with CN1C(=O)[C@@H](NC(=O)c2nnc(Cc3ccccc3)[nH]2)CCn2nccc21 [Example 27]
Reply: 1.66

---

MEASURED TARGET: human RIP1 kinase domain (2-375) (Homo sapiens (Human), UniProt Q13546)
PROTOCOL DESCRIPTION: biochemical
Format: biochemical
EXPERIMENTAL SETUP: human RIP1 kinase domain (2-375), Transcreener ADP assay, 50 uM ATP, 2 hours incubation; read-out: RIP1 Ki
Ki less than 90 nM is rule met; Ki greater than or equal to 90 nM is rule not met.

// below: answered compounds
INSERT INTO results (compound, label_value) VALUES
  ('CCC1(C)OCc2cnc(C(=O)N[C@H]3COc4ccccc4N(C)C3=O)nc21 (stereo partly shown)', 'rule met'),
  ('CN1C(=O)[C@@H](NC(=O)c2ncn(Cc3cccc(Cl)c3Cl)n2)CCn2nc(C3CC3)cc21', 'rule met'),
  ('Cc1cc2n(n1)CC[C@H](NC(=O)c1ncn(CC3(C)CC3)n1)C(=O)N2C', 'rule not met'),
  ('CN1C(=O)[C@@H](NC(=O)c2ncn(Cc3ccc(F)c(F)c3)n2)CCn2nc([C@H]3CC3(F)F)cc21', 'rule not met'),
  ('Cc1cc2n(n1)CC[C@H](NC(=O)c1ncn(Cc3cc(F)ccc3F)n1)C(=O)N2C', 'rule met'),
  ('CC(C)c1ccc2[nH]nc(C(=O)N[C@H]3COc4ccccc4N(C)C3=O)c2c1', 'rule met'),
  ('Cc1cc2n(n1)CC[C@H](NC(=O)c1ncn(C(C)c3ccccc3)n1)C(=O)N2C (stereo partly shown)', 'rule not met'),
  ('CN1C(=O)C(NC(=O)c2ncn(Cc3ccc(Cl)cc3)n2)CCn2nc(C3CC3)cc21 (stereo not shown)', 'rule met');

Ask: Does the reported Ki of the following compound sit strictly below 90 nM? Cc1cc2n(n1)CCC(NC(=O)c1ncn(CC3CCCCC3)n1)C(=O)N2C (stereo not shown)
Reply: rule not met
